Values were extracted from ChEMBL document CHEMBL2034906.

test: Cytotoxicity against human MM1S cells after 48 hrs by luminometric analysis in presence of HS5 bone marrow stromal cells
Assay type: functional, cell-based
settings: MM1.S
The reader will find reported pIC50 values listed item by item below.
Friendly reminder that pIC50 comes from taking -log10 of the concentration in mol/L.

Use these answered entries as a reference point.
Q) Return reported pIC50; argument: CC(=O)OC[C@]12Oc3cccc(O)c3C(=O)C1=C(O)C[C@@H](C)[C@H]2OC(C)=O (relative stereo)
A) 3.73

Q) How about CC(=O)O[C@@H]1[C@H](C)CC(O)=C2C(=O)c3c(ccc(-c4ccc5c(c4O)C(=O)C4=C(O)C[C@@H](C)[C@@H](OC(C)=O)[C@@]4(CO)O5)c3O)O[C@@]21CO [DICERANDROL A] ?
A) 4.48

Others:
Q) Return reported pIC50; argument: CC(=O)OC[C@]12Oc3ccc(-c4ccc5c(c4O)C(=O)C4=C(O)C[C@@H](C)[C@@H](OC(C)=O)[C@@]4(CO)O5)c(O)c3C(=O)C1=C(O)C[C@@H](C)[C@H]2OC(C)=O [DICERANDROL B]
A) 5.10

Q) How about CC(=O)OC[C@]12Oc3ccc(-c4ccc5c(c4O)C(=O)C4=C(O)C[C@@H](C)[C@@H](OC(C)=O)[C@@]4(COC(C)=O)O5)c(O)c3C(=O)C1=C(O)C[C@@H](C)[C@H]2OC(C)=O [DICERANDROL C] ?
A) 4.68

Q) How about CC(=O)OC[C@]12Oc3c(-c4ccc5c(c4O)C(=O)C4=C(O)C[C@@H](C)[C@@H](OC(C)=O)[C@@]4(CO)O5)ccc(O)c3C(=O)C1=C(O)C[C@@H](C)[C@H]2OC(C)=O (relative stereo) ?
A) 4.33
